Tested on: Deroceras reticulatum (grey field slug)
Assay: Example 1: pot test, treated winter wheat seed with 5 adult slugs per pot, 14 days
Format: in vivo
Settings: 2 ml formulated per kg seed; 3 days after sowing
experimental_readout: Mean number of dead slugs per pot
Form rule: numeric answer, no unit written next to it.

Problem: Give the reported value of Mean number of dead slugs per pot for this record: COc1cc(C=CC(=O)O)cc(OC)c1
Solution: 0

Problem: Let me know recorded Mean number of dead slugs per pot for CN1COCN(Cc2cnc(Cl)s2)/C1=N\[N+](=O)[O-] , thanks.
Solution: 0

Problem: Identify measured Mean number of dead slugs per pot associated with N#CN=C1SCCN1Cc1ccc(Cl)nc1
Solution: 0.3

Problem: Give Mean number of dead slugs per pot for the following compound: CC=C(C)C(=O)OC1CC(OC(C)=O)C2(C(=O)OC)COC3C2C12COC(O)(C(=O)OC)C2C(C)(C12OC1(C)C1CC2OC2OC=CC21O)C3O (stereo not shown)
Solution: 0.3

Problem: Tell us which Mean number of dead slugs per pot value is on record for O=CC=Cc1ccccc1
Solution: 1.3

Problem: Give the value of Mean number of dead slugs per pot reported for the following: CNC(=O)Oc1cc(C)c(SC)c(C)c1 [methiocarb, 4-methylthio-3,5-xylyl methylcarbamate]
Solution: 0.3

Problem: Report Mean number of dead slugs per pot for O=[N+]([O-])NC1=NCCN1Cc1ccc(Cl)nc1
Solution: 0

---

System: Deroceras reticulatum (grey field slug)
Test: Example 1: pot test, treated winter wheat seed with 5 adult slugs per pot, 14 days
Assay type: in vivo
Conditions: 8 ml formulated per kg seed; 2 days after sowing
Experimental: Winter wheat (Kampa race; thousand grain weight of 51 grams) was used in an experiment to test the efficacy of the compositions of the present inventions in relation to known molluscicidal compounds. […] Following the addition of the slugs, the number of damaged seeds was counted after 2, 3, 7, 10 and 14 days. The number of plants present (germinated and not eaten or damaged by the slugs) was determined 3, 7, 10 and 14 days after the start of the test. […]
experimental_readout: Mean number of damaged seeds per pot
Keep it simple and answer with nothing but the number.

Problem: Hello, please tell me recorded Mean number of damaged seeds per pot for this one: COc1cc(C=CC(=O)O)cc(OC)c1
Solution: 1.8

Problem: Supply reported Mean number of damaged seeds per pot belonging to this molecule: O=[N+]([O-])NC1=NCCN1Cc1ccc(Cl)nc1
Solution: 1.3

Problem: Identify the reported Mean number of damaged seeds per pot for the following entry. CN1COCN(Cc2cnc(Cl)s2)/C1=N\[N+](=O)[O-]
Solution: 2.0

Problem: Please give the documented Mean number of damaged seeds per pot of CNC(=O)Oc1cc(C)c(SC)c(C)c1 [methiocarb, 4-methylthio-3,5-xylyl methylcarbamate]
Solution: 1.8

---

System: Deroceras reticulatum (grey field slug)
Test: Example 1: pot test, treated winter wheat seed with 5 adult slugs per pot, 14 days
Format: in vivo
Conditions: 4 ml formulated per kg seed; 3 days after sowing
experimental_readout: Mean number of dead slugs per pot
Output: the number by itself.

Problem: Quick one: give measured Mean number of dead slugs per pot for CNC(=O)Oc1cc(C)c(SC)c(C)c1 [methiocarb, 4-methylthio-3,5-xylyl methylcarbamate]
Solution: 0

Problem: Return Mean number of dead slugs per pot (reported value) for this compound: CN1COCN(Cc2cnc(Cl)s2)/C1=N\[N+](=O)[O-]
Solution: 0

Problem: Using known records, supply Mean number of dead slugs per pot for O=CC=Cc1ccccc1
Solution: 0

Problem: Give reported Mean number of dead slugs per pot value for COc1cc(C=CC(=O)O)cc(OC)c1
Solution: 0.3

Problem: Note Mean number of dead slugs per pot for the compound shown: O=[N+]([O-])NC1=NCCN1Cc1ccc(Cl)nc1
Solution: 0.3
